Test system: HTT
Assay: HiBiT protein abundance assay, HTT (K562 HiBiT knock-in)
Format: cell-based, human
Details: HiBiT knock-in K562 cells, 24 hours, top dose 10 μM
Protocol: Compounds described herein were used to screen for effects on quantitative protein abundance using a HiBit assay system (Promega). Quantitative protein abundance was determined by measuring the protein levels of HiBit-tagged protein targets expressed in cell culture via luminescence using the Nano-Glo HiBiT Lytic Detection System, which uses a split complementation assay format to reconstitute NanoBiT enzyme to generate a luminescent signal. […]
pIC50: −log10 of the molar value.
METRIC_NAME: pIC50

These solved cases illustrate the format of a correct answer.
| COMPOUND | pIC50 |
| --- | --- |
| O=C(NCc1ccn[nH]1)Nc1cc2nc(N3CCNCC3)ccc2cn1 | < 5.00 |
| C[C@H]1C[C@@H](c2ccc3nc(-c4cc5cn(C)nc5c(F)c4O)ccc3n2)CCN1 (single isomer, unassigned) | > 7.00 |
| Cn1cc2cc(-c3ccc4nc(N5CC[C@@H](N[C@H]6C[C@H](F)C6)C5)ccc4n3)c(O)c(F)c2n1 (single isomer, unassigned) | > 7.00 |

Batch request: pIC50 per item, same order as input.
1. Cc1cn2nc(-c3ccc4nc(N5CCC(NC(C)(C)C)C5)ccc4n3)c(O)c2c(C)n1 (stereo not shown)
2. Cn1cc2cc(-c3ccc4nc(N5CCNC(C)(C)C5)ccc4n3)c(O)cc2n1
3. Cn1cc2cc(-c3ccc4nc(N5CC[C@H](NC6(C)CC6)C5)ccc4n3)c(O)c(F)c2n1
4. CC1CN(c2ccc3nc(-c4cc5cn(C)nc5cc4O)ccc3n2)CCN1C (stereo not shown)

## Result
["> 7.00", "5.00 to 6.00", "> 7.00", "5.00 to 6.00"]

###

Tested on: MYB
Test: HiBiT protein abundance assay, MYB (K562 HiBiT knock-in)
Type: cell-based, human
Conditions: HiBiT knock-in K562 cells, 24 hours, top dose 10 μM
Assignment: determine reported IC50 for the given compounds.

These solved cases illustrate the format of a correct answer.
| COMPOUND | IC50 |
| --- | --- |
| C[C@H]1C[C@@H](c2ccc3nc(-c4cc5cn(C)nc5cc4O)ccc3n2)CCN1 | 0.1 to 1 µM |
| Cc1nc2cc(O)c(-c3ccc4nc(N5CC[C@@H](NC6CCC6)C5)ccc4n3)cc2o1 | < 0.1 µM |
| Cc1nc2cc(O)c(-c3ccc4nc(N5CC[C@@H](NC6(CF)CC6)C5)ccc4n3)cc2o1 (single isomer, unassigned) | 0.1 to 1 µM |

// below: IC50 requested for another compound
Sure, the documented IC50 for Cc1nc(-c2ccc3nc(N4CCC(NC(C)(C)C)C4)ccc3n2)cc2cn(C)nc12 (stereo not shown) is > 10 µM

###

Test system: HTT mRNA
Experiment: RT-qPCR splicing assay, HTT mRNA canonical (CJ) and alternative (AJ) junction
Type: cell-based, human
Conditions: Homo sapiens, HTT canonical junction mRNA, RT-qPCR; read-out: HTT CJ (decrease in CJ mRNA levels, IC50)
Assignment: determine reported IC50 for the given compounds.

Batch request: IC50 per item, same order as input.
1. CN1CCC2(CC1)CCN2c1ccc2nc(-c3cc4cn(C)nc4cc3O)ccc2n1
2. Cn1cc2cc(-c3ccc4nc(N5CC[C@H](N[C@H]6C[C@H](F)C6)C5)ccc4n3)c(O)c(F)c2n1 (single isomer, unassigned)
3. Cc1nc2cc(O)c(-c3ccc4nc([C@H]5CCNC6(CC6)C5)ccc4n3)cc2o1 (single isomer, unassigned)
4. Cn1cc2cc(-c3ccc4nc(N5CC[C@H](NCC6CC6)C5)ccc4n3)c(O)c(F)c2n1 (single isomer, unassigned)

## Result
> 10 µM
< 0.1 µM
< 0.1 µM
< 0.1 µM

Batch request: IC50 per item, same order as input.
1. Cc1nc2c(C)c(O)c(-c3ccc4nc(N5CCC(NC6CCC6)C5)ccc4n3)cc2o1 (stereo not drawn)
2. Cc1nc2cc(O)c(-c3ccc4nc([C@@H]5CCNC6(CC6)C5)ccc4n3)cc2o1 (single isomer, unassigned)
3. COc1c(-c2ccc3nc(N4CCC(NC(C)(C)C)C4)ccc3n2)cc2c[nH]nc2c1C (stereo not drawn)

## Result
1: < 0.1 µM; 2: < 0.1 µM; 3: > 10 µM

###

Tested on: MYB mRNA
Assay: RT-qPCR splicing assay, MYB mRNA canonical (CJ) and alternative (AJ) junction
Assay type: cell-based, human
Conditions: Homo sapiens, RT-qPCR, MYB alternative junction mRNA increase; read-out: MYB AJ (increase in alternative junction mRNA, AC50)
METRIC_NAME: AC50

Batch request: AC50 per item, same order as input.
1. Cc1cn2cc(-c3ncc4cc(N5C[C@H](C)N(C)[C@@H](C)C5)ccc4n3)cc(F)c2n1 [Compound 824]
2. C[C@H]1CN(c2ccc3nc(-c4cc(F)c5nc(CF)cn5c4)ncc3c2)C[C@H](C)N1 [Compound 829]
3. C[C@H]1CN(c2ccc3nc(-c4cc(F)c5nn(C)c(F)c5c4)ncc3c2)C[C@H](C)N1 [Compound 924]
4. Cc1nc2c(F)cc(-c3ncc4cc(N5C[C@H](C)N[C@@H](C)C5)ccc4n3)cn2c1F (single isomer, unassigned) [Compound 822]

## Result
100 to 1000 nM
100 to 1000 nM
1000 to 10000 nM
1000 to 10000 nM

###

System: Target C
Experiment: RT-qPCR canonical junction panel assay, Target C mRNA
Format: cell-based
Details: Table 4, read-out: Target C IC50 (decrease in CJ mRNA levels)
Experimental: Compounds described herein were used to modulate RNA transcript abundance in cells. The expression of a target mRNA was measured by detecting the formation of an exon-exon junction in the canonical transcript (CJ). A compound mediated exon-inclusion event was detected by observing an increase in formation of a new junction with an alternative exon (AJ). Real-time qPCR assays were used to detect these splicing switches and interrogate the potency of various compounds towards different target genes. […]
Where a name gives a salt, the structure may show the parent alone.
Assignment: determine reported IC50 for the given molecules.

| MOLECULE | RESULT |
| --- | --- |
| Cc1nc2c(C)c(O)c(-c3ccc4nc(N5CC[C@H](NC6(CF)CC6)C5)ccc4n3)cc2o1 (single isomer, unassigned) | < 100 nM |
| CNC(=O)c1nc(-c2cc(F)c3nc(C)cn3c2)nc2ccc(N3CCNCC3)cc12 | 100 to 1000 nM |
| Cn1cc2cc(-c3ccc4nc(N5CC[C@@H](NC6CCC6)C5)ccc4n3)c(O)c(F)c2n1 (single isomer, unassigned) | < 100 nM |

Batch request: IC50 per item, same order as input.
1. Cn1cc2cc(-c3ccc4nc(N5CC[C@H](NC6CC(F)(F)C6)C5)ccc4n3)c(O)cc2n1
2. C[C@@H]1CN(c2cc(F)c3nc(-c4cc5cn(C)nc5cc4O)ccc3c2)C[C@H](C)N1 [Compound 768, hydrochloride]
3. Cc1c(O)c(-c2ncc3cc(N4C[C@H](C)NC5(CC5)C4)ccc3n2)cc2cn(C)nc12 (single isomer, unassigned)
4. COc1cc2nc(C3CCNCC3)ccc2nc1-c1cc2c(C)nc(C)cn2n1

## Result
> 10000 nM
1000 to 10000 nM
1000 to 10000 nM
> 10000 nM

###

Test system: HTT
Assay: HiBiT protein abundance assay, HTT (K562 HiBiT knock-in)
Type: cell-based, human
Settings: HiBiT knock-in K562 cells, 24 hours, top dose 10 μM
METRIC_NAME: IC50

These solved cases illustrate the format of a correct answer.
| COMPOUND | IC50 |
| --- | --- |
| Cc1nc2cc(O)c(-c3ccc4nc(N5CC[C@H](NC6CC6)C5)ncc4n3)cc2o1 [Compound 435] | 100 to 1000 nM |
| Cn1cc2cc(-c3cc4ccc(C5CCNCC5)nc4cn3)c(O)cc2n1 [Compound 104] | 1000 to 10000 nM |
| Cc1cn2cc(-c3ccc4cc(N5CCNCC5)cc(F)c4n3)cc(F)c2n1 [Compound 517] | < 100 nM |
| Cc1nc2c(F)c(O)c(-c3ccc4nc(N5CCC(NC6(C)CC6)C5)ccc4n3)cc2o1 (stereo in doubt) [Compound 327] | < 100 nM |

Batch request: IC50 per item, same order as input.
1. C[C@@H]1CN(c2ccc3nc(-c4cc5cn(C)nc5c(F)c4O)nc(C(N)=O)c3c2)C[C@H](C)N1 [Compound 712]
2. Cn1cc2cc(-c3cc4ccc(N5CCC(NC(C)(C)C)C5)nc4cn3)c(O)cc2n1 (centres unmarked) [Compound 218]
3. CN(C)C1CCN(c2ccc3nc(-c4cc5cn(C)nc5c(F)c4O)ncc3c2)CC1 [Compound 757]
4. Cc1nc2c(F)c(O)c(-c3ccc4nc(N5CC[C@@H](NC6CCC6)C5)ccc4n3)cc2o1 (single isomer, unassigned) [Compound 307]

## Result
100 to 1000 nM
> 10000 nM
1000 to 10000 nM
< 100 nM
